Cited source: patent US7417156B2

System: HCT-116
Assay: NCI 60 cell line panel screen (SRB)
Format: cell-based, human
Experimental setup: HCT-116 (Colon Cancer); TGI: PG=0
List of Log10TGI50 values.

[
  {
    "Molecule": "CC(=O)O[C@H]1C(=O)[C@@]2(C)[C@H]([C@H](OC(=O)c3ccccc3)[C@]3(O)C[C@H](OC(=O)[C@H](O)[C@@H](NC(=O)c4ccccc4)c4ccccc4)C(C)=C1C3(C)C)[C@]1(OC(C)=O)CO[C@@H]1C[C@@H]2O [Paclitaxel, paclitaxel, reference compound]",
    "Bound sign": "=",
    "Log10TGI50 [log10M]": "−4.82"
  },
  {
    "Molecule": "C[C@@H]1CC[C@H]2[C@@H](C)C(CC(O)(COC(=O)CCC(=O)O)CC3OC4O[C@]5(C)CC[C@H]6[C@H](C)CC[C@@H]([C@H]3C)C46OO5)OC3O[C@]4(C)CCC1C32OO4 (stereo partly drawn) [Compound 9, tertiary alcohol primary succinate ester]",
    "Bound sign": ">",
    "Log10TGI50 [log10M]": "−4.30"
  },
  {
    "Molecule": "CC1CCC2C(C)C(CC(O)(CO)CC3OC4OC5(C)CCC6C(C)CCC(C3C)C46OO5)OC3OC4(C)CCC1C32OO4 (stereo not drawn)",
    "Bound sign": ">",
    "Log10TGI50 [log10M]": "−4.00"
  },
  {
    "Molecule": "C[C@@H]1CC[C@H]2[C@@H](C)C(=O)O[C@@H]3O[C@]4(C)CC[C@@H]1[C@]32OO4",
    "Bound sign": ">",
    "Log10TGI50 [log10M]": "−4.00"
  },
  {
    "Molecule": "CC1CCC2C(C)C(CC(O)(CC3OC4OC5(C)CCC6C(C)CCC(C3C)C46OO5)CS(=O)(=O)c3ccc(C(=O)O)cc3)OC3OC4(C)CCC1C32OO4 (stereo not drawn) [Compound 10c]",
    "Bound sign": "=",
    "Log10TGI50 [log10M]": "−5.16"
  },
  {
    "Molecule": "CC1CCC2C(C)C(CC(COC(=O)c3cc[n+]([O-])cc3)CC3OC4OC5(C)CCC6C(C)CCC(C3C)C46OO5)OC3OC4(C)CCC1C32OO4 (stereo not drawn)",
    "Bound sign": "=",
    "Log10TGI50 [log10M]": "−5.06"
  },
  {
    "Molecule": "CC1CCC2C(C)C(CC(COC(=O)CCC(=O)O)CC3OC4OC5(C)CCC6C(C)CCC(C3C)C46OO5)OC3OC4(C)CCC1C32OO4 (stereo not drawn) [Compound 8a, bis-trioxane primary succinate monoester]",
    "Bound sign": ">",
    "Log10TGI50 [log10M]": "−4.30"
  },
  {
    "Molecule": "CC1CCC2C(C)C(CC(COCC(=O)O)CC3OC4OC5(C)CCC6C(C)CCC(C3C)C46OO5)OC3OC4(C)CCC1C32OO4 (stereo not drawn) [Compound 12b, bis-trioxane O-acetic acid]",
    "Bound sign": ">",
    "Log10TGI50 [log10M]": "−4.30"
  },
  {
    "Molecule": "C[C@@H]1CC[C@H]2[C@@H](C)C(CC(O)(CC3OC4O[C@]5(C)CC[C@H]6[C@H](C)CC[C@@H]([C@H]3C)C46OO5)c3ccc(C(=O)O)cc3)OC3O[C@]4(C)CCC1C32OO4 (stereo partly drawn) [Compound 11b]",
    "Bound sign": "=",
    "Log10TGI50 [log10M]": "−4.40"
  }
]
